experiment: Clinical test in humans, single 30-min i.v. infusion, plasma PK; assay type: in vivo; details: human, in vivo, iv, 150 ug/kg, single 30-min i.v. infusion 150 μg/kg, mean
Ends that are not written are not given here.
result-type: AUC(0-inf) (ng·h/mL)
Only the number, expressed in ng·h/mL, is required.

Task: What value of AUC(0-inf) has been recorded for this entry: AMVSEFLKQAWFIENEEQEYVQTLKSSKGGPGSAVSPYPTFNPSSDV-NH2 [Peptide 1]
Result: 1520

====

test: Clinical test in humans, single 30-min i.v. infusion, plasma PK; type: in vivo; conditions: human, in vivo, iv, 25 ug/kg, single 30-min i.v. infusion 25 μg/kg, GM, read-out: AUC0-24
Ends that are not written are not given here.
result-type: AUC(0-t) (ng·h/mL)
API: value field is a number in ng·h/mL; no unit string.

Task: I have this substance here, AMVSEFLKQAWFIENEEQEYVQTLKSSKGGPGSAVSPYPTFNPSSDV-NH2 [Peptide 1] , and I need its recorded AUC(0-t).
Result: 211

====

test: PK after single intravenous injection of Peptide 1 in male rats; design: species or system male Wistar (CRL: WI(Han)) rats; details: rat, in vivo, single IV 1.0 mg/kg, initial elimination phase
Ends that are not written are not given here.
result-type: C0 (ng/mL)
Please reply with the bare figure in ng/mL and do not write the unit itself.

Task: Entry under review: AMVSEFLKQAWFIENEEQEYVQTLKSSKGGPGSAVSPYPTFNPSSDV-NH2 [Peptide 1] . Reported C0?
Result: 32500

====

Assay: 14-day repeat dose IV toxicity study with toxicokinetic evaluation on Day 1 and Day 14 in rats
Assay type: in vivo, Wistar rats
Conditions: rat, in vivo, iv, 3 mg/kg/day, IV 3.0 mg/kg/day, male, Day 14
Method: Peptide 1 in blood samples collected from animals used in the studies (rat and dog) has been measured by an LC-MS/MS method. Analysis of samples collected in the pharmacokinetic study in rats was performed prior to validation of the method. Prior to analysis of samples from the GLP toxicology studies, the method was validated according to GLP to ensure that it is selective, accurate, reproducible, and able to produce reliable results. […]
Ends that are not written are not given here.
result-type: C0 (ng/mL)
Reply with just the number (in ng/mL).

Task: Which C0 value belongs to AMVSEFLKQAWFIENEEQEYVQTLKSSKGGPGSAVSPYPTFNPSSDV-NH2 [Peptide 1] ?
Result: 36700

====

experiment: Clinical test in humans, single 30-min i.v. infusion, plasma PK; type: in vivo; settings: human, in vivo, iv, single 30-min i.v. infusion 200 μg/kg, mean
Ends that are not written are not given here.
result-type: AUC(0-inf)
Kindly format the answer as number then unit.

Task: Need AUC(0-inf), item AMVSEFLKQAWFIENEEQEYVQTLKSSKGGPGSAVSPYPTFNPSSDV-NH2 [Peptide 1]
Result: 2280 ng·h/mL

====

experiment: Clinical test in humans, single 30-min i.v. infusion, plasma PK; format: in vivo; settings: human, in vivo, iv, 400 ug/kg, single 30-min i.v. infusion 400 μg/kg, mean
Ends that are not written are not given here.
result-type: clearance (mL/min/kg)
Give the value in mL/min/kg but do not write mL/min/kg after it.

Task: For the substance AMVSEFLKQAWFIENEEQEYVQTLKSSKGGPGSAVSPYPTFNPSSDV-NH2 [Peptide 1] , what clearance is on record?
Result: 1.33
